# Target: tetanus neurotoxin (TeNT), authentic tetanus holotoxin (Clostridium tetani, UniProt P04958 2-1315)
# Sequence (P04958 2-457 limits assumed, chain 1 of 2): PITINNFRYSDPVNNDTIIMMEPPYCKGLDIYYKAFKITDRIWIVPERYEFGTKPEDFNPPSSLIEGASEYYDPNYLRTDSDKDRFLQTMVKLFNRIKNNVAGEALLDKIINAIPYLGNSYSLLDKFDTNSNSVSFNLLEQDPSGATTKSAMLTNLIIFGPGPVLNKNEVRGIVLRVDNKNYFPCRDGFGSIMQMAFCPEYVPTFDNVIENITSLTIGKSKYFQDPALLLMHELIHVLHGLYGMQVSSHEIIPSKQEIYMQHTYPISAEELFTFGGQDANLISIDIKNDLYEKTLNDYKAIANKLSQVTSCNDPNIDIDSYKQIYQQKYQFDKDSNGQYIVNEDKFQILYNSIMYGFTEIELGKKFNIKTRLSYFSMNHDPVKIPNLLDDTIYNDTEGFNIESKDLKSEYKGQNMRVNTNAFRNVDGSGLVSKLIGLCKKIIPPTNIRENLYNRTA
# Sequence (P04958 458-1315 limits assumed, chain 2 of 2): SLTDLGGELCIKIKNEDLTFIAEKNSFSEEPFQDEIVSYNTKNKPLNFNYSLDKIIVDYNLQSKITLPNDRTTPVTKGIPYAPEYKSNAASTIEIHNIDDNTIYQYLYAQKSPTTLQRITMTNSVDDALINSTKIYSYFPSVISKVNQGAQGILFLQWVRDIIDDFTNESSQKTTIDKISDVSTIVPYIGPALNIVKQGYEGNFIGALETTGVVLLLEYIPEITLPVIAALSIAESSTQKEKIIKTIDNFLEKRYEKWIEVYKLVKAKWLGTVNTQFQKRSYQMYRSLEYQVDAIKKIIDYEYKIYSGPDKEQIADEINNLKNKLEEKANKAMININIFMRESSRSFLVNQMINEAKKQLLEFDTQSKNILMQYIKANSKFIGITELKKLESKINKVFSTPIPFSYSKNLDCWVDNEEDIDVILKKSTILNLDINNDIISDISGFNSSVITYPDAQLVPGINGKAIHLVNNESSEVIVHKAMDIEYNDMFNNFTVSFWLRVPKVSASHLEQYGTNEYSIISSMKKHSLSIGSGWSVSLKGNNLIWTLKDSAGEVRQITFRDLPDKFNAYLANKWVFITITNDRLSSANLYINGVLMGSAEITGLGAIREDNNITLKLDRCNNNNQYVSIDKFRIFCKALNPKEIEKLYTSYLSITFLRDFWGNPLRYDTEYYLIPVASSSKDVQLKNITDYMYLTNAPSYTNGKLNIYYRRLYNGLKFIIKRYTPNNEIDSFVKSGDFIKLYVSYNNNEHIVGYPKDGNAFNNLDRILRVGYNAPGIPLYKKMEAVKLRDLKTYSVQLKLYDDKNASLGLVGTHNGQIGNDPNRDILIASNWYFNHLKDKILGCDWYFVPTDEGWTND
# Experimental protocol: ELISA: directly coated TeNT, goat anti-llama Ig PO
Label satisfied when maximal absorbance value is at or above 1 A450; anything below gets not satisfied.

For orientation, consider the following solved cases.
SVT15-3FW4M-GS2-SVG13M4-H6 (bispecific antibody) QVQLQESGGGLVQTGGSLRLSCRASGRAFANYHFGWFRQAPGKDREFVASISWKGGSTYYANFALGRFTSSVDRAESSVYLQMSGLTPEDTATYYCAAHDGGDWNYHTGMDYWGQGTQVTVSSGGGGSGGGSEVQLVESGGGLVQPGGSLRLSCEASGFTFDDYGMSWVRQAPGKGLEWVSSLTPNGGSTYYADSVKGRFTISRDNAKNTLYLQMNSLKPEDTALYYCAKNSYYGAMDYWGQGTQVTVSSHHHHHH | satisfied
SVT16L (VHH) VHH: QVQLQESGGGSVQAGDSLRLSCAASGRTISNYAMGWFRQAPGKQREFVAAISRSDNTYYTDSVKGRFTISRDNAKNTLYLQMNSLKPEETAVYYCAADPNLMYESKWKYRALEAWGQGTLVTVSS | not satisfied
SVT06-GS2-SVG13M4-H6 (bispecific antibody) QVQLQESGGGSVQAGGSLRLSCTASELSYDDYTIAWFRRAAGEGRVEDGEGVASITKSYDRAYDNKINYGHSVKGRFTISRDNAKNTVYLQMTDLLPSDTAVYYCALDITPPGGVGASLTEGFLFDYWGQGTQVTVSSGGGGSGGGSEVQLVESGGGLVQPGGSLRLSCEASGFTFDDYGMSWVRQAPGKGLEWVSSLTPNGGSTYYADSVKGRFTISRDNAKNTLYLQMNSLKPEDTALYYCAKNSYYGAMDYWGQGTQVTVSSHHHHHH | satisfied
SVT15-3FW4M-GS2-SVG06M4-H6 (bispecific antibody) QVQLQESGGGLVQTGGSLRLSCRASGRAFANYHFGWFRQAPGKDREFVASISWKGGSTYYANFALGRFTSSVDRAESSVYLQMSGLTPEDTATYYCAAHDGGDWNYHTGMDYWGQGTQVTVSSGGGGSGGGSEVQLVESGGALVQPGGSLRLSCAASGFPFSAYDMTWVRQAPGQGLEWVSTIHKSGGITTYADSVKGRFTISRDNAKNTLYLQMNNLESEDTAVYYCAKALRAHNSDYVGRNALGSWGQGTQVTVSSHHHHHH | satisfied
SVG13L (VHH) VHH: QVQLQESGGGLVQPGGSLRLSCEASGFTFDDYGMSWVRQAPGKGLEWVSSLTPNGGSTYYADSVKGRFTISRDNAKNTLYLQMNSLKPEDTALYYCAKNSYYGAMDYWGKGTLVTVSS | not satisfied
SVT06L (VHH) VHH: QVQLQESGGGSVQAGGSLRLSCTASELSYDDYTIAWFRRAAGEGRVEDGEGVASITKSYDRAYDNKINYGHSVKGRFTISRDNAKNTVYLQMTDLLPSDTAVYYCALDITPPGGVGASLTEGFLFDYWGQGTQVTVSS | not satisfied

// switching to the query binder
Can SVT06-GS2-SVA12M2-H6 (bispecific antibody) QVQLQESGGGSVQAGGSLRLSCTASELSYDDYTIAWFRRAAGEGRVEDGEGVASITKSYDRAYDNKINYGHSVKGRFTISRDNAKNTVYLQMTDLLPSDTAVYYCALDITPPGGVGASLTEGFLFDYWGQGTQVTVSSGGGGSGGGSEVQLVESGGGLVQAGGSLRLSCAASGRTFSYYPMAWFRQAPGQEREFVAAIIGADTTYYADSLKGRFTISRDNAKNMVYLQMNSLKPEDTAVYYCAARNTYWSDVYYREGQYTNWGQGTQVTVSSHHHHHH be said to have maximal absorbance value at or above 1 A450?
satisfied
